Tested on: Hyperlipidemic Hamster
Assay: In Vivo Assay of Hypolipidemic Agents Using the Hyperlipidemic Hamster
Settings: Mesocricetus auratus, po, 168 h, 0.5% cholesterol diet 7 days, oral gavage once daily in corn oil, dose 50 mg/kg, percent change versus control, negative = lowering, read-out: % Reduction Serum Cholest.
Reported change in vivo at 50 mg/kg values follow for various compounds
measuredParameter: change in vivo at 50 mg/kg (%)

>  <compound>
COc1ccc([C@H]2C(C[C@@H](OC(C)=O)c3ccccc3)C(=O)N2c2ccccc2)cc1 (some centres unmarked)

>  <endpointValue>
0

$$$$
>  <compound>
COc1ccc([C@H]2C(C[C@@H](O)c3ccccc3)C(=O)N2c2ccccc2)cc1 (some centres unmarked)

>  <endpointValue>
-2.3

$$$$
>  <compound>
COc1ccc([C@@H]2[C@H](C(O)CCc3ccccc3)C(=O)N2c2ccccc2)cc1 (some centres unmarked)

>  <endpointValue>
-60

$$$$
>  <compound>
COc1ccc([C@@H]2C(C[C@@H](O)c3ccccc3)C(=O)N2c2ccccc2)cc1 (some centres unmarked)

>  <endpointValue>
-15

$$$$
>  <compound>
COc1ccc([C@@H]2C([C@@H](O)CCc3ccccc3)C(=O)N2c2ccccc2)cc1 (some centres unmarked)

>  <endpointValue>
-31

$$$$
